- System Tested: LAP2, Q96RT1
- Sequence (Q96RT1 other isoform, or with tags, fused parts or gaps): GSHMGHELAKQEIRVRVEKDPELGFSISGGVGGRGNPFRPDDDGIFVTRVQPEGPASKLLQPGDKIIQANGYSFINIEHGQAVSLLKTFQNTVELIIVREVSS
- Test Details: holdup assay
- Parameters: key: below the threshold = too weak to quantify, mostly under pKd 3.1 to 4
- Setup Conditions: plain residues with an end cap or a label only (N-terminal biotin on a linker: ado-ado)
Recorded Endpoint: pKd

>>> experimental_result("SAKVRTVTSV [RASL11B, Q9BPW5]")
3.66
>>> experimental_result("LPHGHSTTRV [NLGN4X, Q8N0W4]")
3.67
>>> experimental_result("DDPSTAETVL [ABCA7, Q8IZY2]")
3.71
>>> experimental_result("NLSIEKETKL [ASNSD1, Q9NWL6]")
3.52
>>> experimental_result("QGPVETESVV [SLC45A4, Q5BKX6]")
3.66
>>> experimental_result("TLPRKRMSSI [GPRC6A, Q5T6X5]")
3.86
>>> experimental_result("PRAEAEDSFL [PDGFRB, P09619]")
3.53
>>> experimental_result("RHGSCVETSL [TMEM151B, Q8IW70]")
3.94
